ASSAYED_SYSTEM: AKT2 (Homo sapiens, UniProt P31751)
Sequence (P31751 whole entry): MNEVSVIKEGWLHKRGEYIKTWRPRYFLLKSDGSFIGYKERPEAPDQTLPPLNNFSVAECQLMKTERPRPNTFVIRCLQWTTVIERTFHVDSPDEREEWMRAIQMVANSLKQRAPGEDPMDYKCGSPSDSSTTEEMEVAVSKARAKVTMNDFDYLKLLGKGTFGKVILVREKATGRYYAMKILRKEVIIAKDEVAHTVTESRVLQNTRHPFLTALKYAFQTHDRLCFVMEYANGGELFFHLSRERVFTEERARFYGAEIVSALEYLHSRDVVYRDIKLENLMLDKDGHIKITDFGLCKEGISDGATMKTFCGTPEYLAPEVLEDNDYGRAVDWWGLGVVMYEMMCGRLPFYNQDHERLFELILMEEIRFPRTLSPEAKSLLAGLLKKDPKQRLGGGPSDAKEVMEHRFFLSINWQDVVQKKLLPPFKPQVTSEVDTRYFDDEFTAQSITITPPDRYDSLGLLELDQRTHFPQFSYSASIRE
METHOD_NOTES: Live cell AKT2 target engagement by NanoBRET competitive probe displacement
STATED_CONDITIONS: HEK293 cells transfected with kinase-NanoLuciferase fusion, 2 h at 37° C.
pIC50: −log10 of the molar value.
ATTRIBUTE_MEASURED: pIC50

1 = C=CC(=O)N1CCC(N[C@@H]2c3ccc(-n4c(-c5cccnc5N)nc5ccc(-n6ccc(C7CC7)n6)nc54)cc3CC2F)CC1C(F)F (single isomer, unassigned)
2 = C=CC(=O)N1C[C@H]2C[C@@H]1CC2N[C@H]1CCc2cc(-n3c(-c4cccnc4N)nc4ccc(-n5cccn5)nc43)ccc21 (single isomer, unassigned) [Example 138]
3 = C/C=C/C(=O)N1CCC(N[C@H]2CCc3cc(-n4c(-c5cccnc5N)nc5ccc(-n6cccn6)nc54)ccc32)CC1
Lookup: Which order do the above compounds take when sorted by rising pIC50? Smallest first. Please write the labels in the order that was asked for.
Found: 3, 2, 1

###

ASSAYED_SYSTEM: AKT1 E17K (Homo sapiens, UniProt P31749, E17K)
Sequence (P31749 whole entry E17K): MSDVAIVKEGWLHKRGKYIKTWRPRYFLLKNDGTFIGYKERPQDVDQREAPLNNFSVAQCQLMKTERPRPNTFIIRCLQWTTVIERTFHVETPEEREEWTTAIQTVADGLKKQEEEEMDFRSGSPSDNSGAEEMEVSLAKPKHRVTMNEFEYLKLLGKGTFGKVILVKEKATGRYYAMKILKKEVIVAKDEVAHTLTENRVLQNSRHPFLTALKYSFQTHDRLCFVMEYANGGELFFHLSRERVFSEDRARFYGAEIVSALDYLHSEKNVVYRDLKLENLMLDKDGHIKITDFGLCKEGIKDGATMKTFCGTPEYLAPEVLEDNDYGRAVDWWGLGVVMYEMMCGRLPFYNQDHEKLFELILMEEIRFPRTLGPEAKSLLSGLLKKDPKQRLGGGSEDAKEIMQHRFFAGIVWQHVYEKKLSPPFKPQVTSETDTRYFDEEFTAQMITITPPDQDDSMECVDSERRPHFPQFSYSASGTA
METHOD_NOTES: Live cell AKT1 E17K target engagement by NanoBRET competitive probe displacement
STATED_CONDITIONS: HEK293 cells transfected with kinase-NanoLuciferase fusion, 2 h at 37° C.
Method: Determining Live Cell AKT1 E17K, AKT1 WT, and AKT2 Target Engagement by NanoBRET Competitive Probe Displacement. Live cell target engagement assays were performed as described (Vasta, J. D. et al. Cell Chem Biol 2018, 25(11), 206-214). […] After incubation for 2 h at 37° C., luciferase substrate and extracellular luciferase inhibitor were added to all wells, and luminescent intensity at 460 nm and 600 nm were measured on a multimode plate-reader. […]
ATTRIBUTE_MEASURED: IC50 (nM)

{"COMPOUND": "C=CC(=O)N1CCC(N[C@@H]2c3ccc(-n4c(-c5cccnc5N)nc5ccc(-n6cccn6)nc54)cc3CC2F)CC1C(F)F (single isomer, unassigned) [Example 303]", "IC50 / nM": 10.9}

1 = C=CC(=O)N1CCC(CC2CCc3cc(-n4c(-c5cccnc5N)nc5ccc(-n6cccn6)nc54)ccc32)CC1 (single isomer, unassigned) [Example 344]
2 = C=CC(=O)N1CCC(N[C@H]2CCc3cc(-n4c(-c5cccnc5N)nc5ccc(-n6ccc(OC)n6)nc54)ccc32)CC1
3 = C=CC(=O)N1CCCC(c2cn([C@H]3CCc4cc(-n5c(-c6cccnc6N)nc6ccc(-n7cccn7)nc65)ccc43)nn2)C1 (single isomer, unassigned) [Example 167]
Lookup: Put these in order: smallest IC50 first, largest last. Please write the labels in the order that was asked for.
Found: 2, 1, 3
(2: 7.65 nM, 1: 21.4 nM, 3: 37.1 nM)

###

ASSAYED_SYSTEM: AKT2 (Homo sapiens, UniProt P31751)
METHOD_NOTES: Live cell AKT2 target engagement by NanoBRET competitive probe displacement
STATED_CONDITIONS: HEK293 cells transfected with kinase-NanoLuciferase fusion, 2 h at 37° C.
ATTRIBUTE_MEASURED: IC50 (nM)

The examples below pair each entry with its known result.
{"COMPOUND": "C=CC(=O)N1CCC(CN[C@H]2CCc3cc(-n4c(-c5cccnc5N)nc5ccc(-n6cccn6)nc54)ccc32)CC1", "UNIT_OF_MEASUREMENT": "nM", "IC50": 74.2}
{"COMPOUND": "C=CC(=O)N1C[C@H]2C[C@@H](C1)C2N[C@H]1CCc2cc(-n3c(-c4cccnc4N)nc4ccc(-n5cccn5)nc43)ccc21 (single isomer, unassigned) [Example 59]", "UNIT_OF_MEASUREMENT": "nM", "IC50": 648}
{"COMPOUND": "C=CC(=O)N1CCC(CC2CCc3cc(-n4c(-c5cccnc5N)nc5ccc(-n6cccn6)nc54)ccc32)CC1 (single isomer, unassigned) [Example 343]", "UNIT_OF_MEASUREMENT": "nM", "IC50": 15.9}
{"COMPOUND": "C=CC(=O)N1CCC(F)(CN[C@H]2CCc3cc(-n4c(-c5cccnc5N)nc5ccc(-n6cccn6)nc54)ccc32)CC1", "UNIT_OF_MEASUREMENT": "nM", "IC50": 27.2}

P = C=CC(=O)N1CCC(N[C@H]2CCc3cc(-n4c(-c5cccnc5N)nc5ccc(-c6ncc(C)o6)nc54)ccc32)CC1
Q = C=CC(=O)N1CCC(N[C@@H]2c3ccc(-n4c(-c5ccccc5)nc5ccc(-c6ccccc6)nc54)cc3CC2F)CC1 (single isomer, unassigned) [Example 324]
Lookup: Problem: Given the entries P and Q , determine which has the lower reported IC50. Give the chosen item's label as your response.
Found: Q
(Q: 88.1 nM, P: 177 nM)

###

ASSAYED_SYSTEM: AKT1 WT (Homo sapiens)
Sequence (P31749 whole entry): as the sequence (P31749 whole entry E17K) above, with K17E counted along it
METHOD_NOTES: Live cell AKT1 WT target engagement by NanoBRET competitive probe displacement
STATED_CONDITIONS: HEK293 cells transfected with kinase-NanoLuciferase fusion, 2 h at 37° C.
ATTRIBUTE_MEASURED: IC50 (nM)

{"COMPOUND": "C=CC(=O)N1CCC(N[C@H]2CCc3cc(-n4c(-c5cccnc5N)nc5ccc(C6CC6)nc54)ccc32)C(C)C1 (single isomer, unassigned) [Example 231]", "IC50, nM": 1220}
{"COMPOUND": "C=CC(=O)Nc1ccccc1C(=O)N[C@H]1CCc2cc(-n3c(-c4cccnc4N)nc4ccc(-n5cccn5)nc43)ccc21", "IC50, nM": 11.7}
{"COMPOUND": "C=CC(=O)N1CCC(N[C@@H]2c3ccc(-n4c(-c5cccnc5N)nc5ccc(-n6ccc(F)n6)nc54)cc3CC2F)CC1 (single isomer, unassigned) [Example 236]", "IC50, nM": 778}
{"COMPOUND": "C=CC(=O)N1CCC(C(=O)N[C@H]2CCc3cc(-n4c(-c5cccnc5N)nc5ccc(-n6cccn6)nc54)ccc32)CC1", "IC50, nM": 50.1}

P = C=CC(=O)N1CCC(N[C@H]2CCc3cc(-n4c(-c5cccnc5N)nc5ccc(-n6ccc(C)n6)nc54)ccc32)CC1
Q = C=CC(=O)N1CCC(N[C@@H]2c3ccc(-n4c(-c5cccnc5N)nc5ccc(-n6cccn6)nc54)cc3CC2F)C(C)C1 (single isomer, unassigned) [Example 289]
Lookup: Problem: Given the entries P and Q , determine which has the lower reported IC50. Give the chosen item's label as your response.
Found: P

1 = C=CC(=O)N(C)Cc1ccccc1C(=O)N[C@H]1CCc2cc(-n3c(-c4cccnc4N)nc4ccc(-n5cccn5)nc43)ccc21
2 = C=CC(=O)N1CCC(N[C@H]2CCc3cc(-n4c(-c5cccnc5N)nc5ccc(OC6CC6)nc54)ccc32)CC1
3 = C=CC(=O)N1CCC(N[C@H]2CCc3cc(-n4c(-c5cccnc5N)nc5ccc(-n6cccn6)nc54)ccc32)CC12CCC2 (single isomer, unassigned) [Example 94]
Lookup: List from greatest to least IC50. Please write the labels in the order that was asked for.
Found: 2, 3, 1

A = C=CC(=O)N1CCC(N[C@H]2CCc3cc(-n4c(-c5cccnc5N)nc5ccc(-n6cccn6)nc54)ccc32)C(F)C1 (single isomer, unassigned) [Example 106]
B = C=CC(=O)N1CC2(CCCC(N[C@H]3CCc4cc(-n5c(-c6cccnc6N)nc6ccc(-n7cccn7)nc65)ccc43)C2)C1 (single isomer, unassigned) [Example 79]
Lookup: Problem: Given the entries A and B , determine which has the lower reported IC50. Give the chosen item's label as your response.
Found: A

###

ASSAYED_SYSTEM: AKT1 E17K (Homo sapiens, UniProt P31749, E17K)
METHOD_NOTES: Live cell AKT1 E17K target engagement by NanoBRET competitive probe displacement
STATED_CONDITIONS: HEK293 cells transfected with kinase-NanoLuciferase fusion, 2 h at 37° C.
ATTRIBUTE_MEASURED: IC50 (nM)

{"COMPOUND": "C=CC(=O)Nc1cccc(F)c1C(=O)N[C@H]1CCc2cc(-n3c(-c4cccnc4N)nc4ccc(-n5cccn5)nc43)ccc21", "ASSAYED_SYSTEM": "AKT1 E17K (Homo sapiens, UniProt P31749, E17K)", "IC50 / nM": 20.1}
{"COMPOUND": "C=CC(=O)N1CCC(N[C@H]2CC(O)c3cc(-n4c(-c5cccnc5N)nc5ccc(-n6cccn6)nc54)ccc32)CC1 (single isomer, unassigned) [Example 219]", "ASSAYED_SYSTEM": "AKT1 E17K (Homo sapiens, UniProt P31749, E17K)", "IC50 / nM": 45.8}
{"COMPOUND": "C=CC(=O)N1CCC(N[C@H]2CCc3cc(-n4c(-c5cccnc5N)nc5ccc(N6CC7CCC(C6)O7)nc54)ccc32)CC1", "ASSAYED_SYSTEM": "AKT1 E17K (Homo sapiens, UniProt P31749, E17K)", "IC50 / nM": 94.7}

a = C=CC(=O)N1CC2(CC(N[C@H]3CCc4cc(-n5c(-c6cccnc6N)nc6ccc(-n7cccn7)nc65)ccc43)C2)C1
b = C=CC(=O)N1CCC(N[C@H]2CCc3cc(-n4c(-c5cccnc5N)nc5c(OC)cc(-n6cccn6)nc54)ccc32)CC1
Lookup: Kindly identify which of a and b has the larger recorded IC50 value. Give the chosen item's label as your response.
Found: a
(a: 12.6 nM, b: 6.33 nM)
